Provenance of the data: patent US4101552A

experiment: Acute toxicity: LD50 on mice after 24 hours
test-parameters: mouse, in vivo, ip, intraperitoneally
reported-metric: LD50 at 24 h (mg/kg)

INSERT INTO results (compound, endpoint_value) VALUES
  ('C=CCOCC(O)CNC(=O)[C@@H]1C=C2c3cccc4[nH]cc(c34)C[C@H]2N(C)C1 (stereo partly drawn) [Example 6]', 110),
  ('CN1C[C@H](C(=O)NC2=NCCS2)C[C@@H]2c3cccc4c3c(cn4C)C[C@H]21 [Example 4]', 330),
  ('Cc1ccc(NC(=O)[C@@H]2C=C3c4cccc5[nH]cc(c45)C[C@H]3N(C)C2)c(F)c1 [Example 12]', 30);
